Cited source for all entries: patent US20160060340A1

Target: T1, FOLR1-mycHis (human, UniProt P15328 25-233)
T1 construct: Secreted from CHO/DG44 cells, purified on Ni-NTA; Residues 1-233 include the native signal peptide; also called non-reducing FOLR1-mycHis; recombinant protein having myc and His tag at the C-terminus of FOLR1 (1-233 amino acids); not shown: myc and His tag at the C-terminus
T1 sequence (P15328 25-233): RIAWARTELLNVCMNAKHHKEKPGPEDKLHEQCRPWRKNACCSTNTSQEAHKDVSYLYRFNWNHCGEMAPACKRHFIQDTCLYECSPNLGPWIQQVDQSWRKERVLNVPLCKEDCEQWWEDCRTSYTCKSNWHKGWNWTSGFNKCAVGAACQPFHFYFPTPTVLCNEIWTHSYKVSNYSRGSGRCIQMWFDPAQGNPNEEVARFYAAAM
Experiment: SPR as in Example 29, antibody captured, FOLR1-mycHis as analyte
# affinity as percent of the affinity of ChRA15-7Acc antibody per entry
Give just the number in %; leave the unit off.

For orientation, consider the following solved cases.
1. HV7LV3-CDRH3-Cys101 modified antibody C101V (antibody, human IgG1, V domains shown, Human IgG1 kappa constant regions of pKANTEX93; transiently made in FUT8 double-knockout CHO-K1 cells; also called antibody in which Cys101 was modified with Val) VH: EVQLVESGGGLVQPGGSLRLSCAASGFTFTDFYMNWVRQPPGKAPEWLGFIRNKANGYTTEFNPSVKGRFTISRDNSKNSLYLQMNSLKTEDTATYYCARVLYGYAYYYVMDAWGQGTLVTVSS VL: DIQMTQSPSSLSASLGDRVTITCRTSEDIFRNLAWYQQKPGKAPKLLIYDTNRLADGVPSRFSGSGSGTDYTLTISSLQPEDFATYFCQQYDNYPLTFGQGTKLEIK ... 55
2. HV7LV3-CDRH3-Cys101 modified antibody C101T (HuRA15-7CT) (antibody, human IgG1, V domains shown, Expressed in FUT8-knockout CHO-K1 cells (Fc glycan without core fucose); not carried by the letters., Human IgG1 kappa constant regions of pKANTEX93; transiently made in FUT8 double-knockout CHO-K1 cells; Same vector as HuRA15-7CTDF; also called antibody in which Cys101 was modified with Thr) VH: EVQLVESGGGLVQPGGSLRLSCAASGFTFTDFYMNWVRQPPGKAPEWLGFIRNKANGYTTEFNPSVKGRFTISRDNSKNSLYLQMNSLKTEDTATYYCARTLYGYAYYYVMDAWGQGTLVTVSS VL: DIQMTQSPSSLSASLGDRVTITCRTSEDIFRNLAWYQQKPGKAPKLLIYDTNRLADGVPSRFSGSGSGTDYTLTISSLQPEDFATYFCQQYDNYPLTFGQGTKLEIK ... 88
3. HV7LV3-CDRH3-Cys101 modified antibody C101F (antibody, human IgG1, V domains shown, Human IgG1 kappa constant regions of pKANTEX93; transiently made in FUT8 double-knockout CHO-K1 cells; also called antibody in which Cys101 was modified with Phe) VH: EVQLVESGGGLVQPGGSLRLSCAASGFTFTDFYMNWVRQPPGKAPEWLGFIRNKANGYTTEFNPSVKGRFTISRDNSKNSLYLQMNSLKTEDTATYYCARFLYGYAYYYVMDAWGQGTLVTVSS VL: DIQMTQSPSSLSASLGDRVTITCRTSEDIFRNLAWYQQKPGKAPKLLIYDTNRLADGVPSRFSGSGSGTDYTLTISSLQPEDFATYFCQQYDNYPLTFGQGTKLEIK ... 80

// moving on: another record for affinity as percent of the affinity of ChRA15-7Acc antibody
Please report the recorded affinity as percent of the affinity of ChRA15-7Acc antibody for HV7LV3-CDRH3-Cys101 modified antibody C101M (antibody, human IgG1, V domains shown, Human IgG1 kappa constant regions of pKANTEX93; transiently made in FUT8 double-knockout CHO-K1 cells; also called antibody in which Cys101 was modified with Met) VH: EVQLVESGGGLVQPGGSLRLSCAASGFTFTDFYMNWVRQPPGKAPEWLGFIRNKANGYTTEFNPSVKGRFTISRDNSKNSLYLQMNSLKTEDTATYYCARMLYGYAYYYVMDAWGQGTLVTVSS VL: DIQMTQSPSSLSASLGDRVTITCRTSEDIFRNLAWYQQKPGKAPKLLIYDTNRLADGVPSRFSGSGSGTDYTLTISSLQPEDFATYFCQQYDNYPLTFGQGTKLEIK .
59
